- Assay Protocol: xn = mol fraction of the nth substance listed
- Applied Conditions: 298.18 K, Wilhelmy plate method, x1 = 0.1
Observed Property: surface tension liquid-gas (mN/m)

# Compound, surface tension liquid-gas (mN/m)
rows = [
    ("CCOC(=O)CC(C)=O [ethyl 3-oxobutanoate] + CCO", 23.31),
    ("CCOC(=O)CC(C)C [ethyl 3-methylbutanoate] + CCO", 22.5),
    ("COC(=O)c1ccccc1 [methyl benzoate] + CCO", 23.78),
    ("CC(=O)OCc1ccccc1 [benzyl ethanoate] + CCO", 23.9),
    ("CCC(=O)OCc1ccccc1 [benzyl propanoate] + CCO", 24),
    ("CCOC(=O)c1ccccc1O [ethyl 2-hydroxybenzoate] + CCO", 23.9),
]
